// provenance: patent US20250290117A1

Tested on: pathogens of clinical samples
Test: Molecular phenotypic antimicrobial susceptibility test of clinical samples, direct PCR without a separate DNA purification step (Table 6)
Type: cell-based
Conditions: K. aerogenes, clinical sample of r136-r150, Ct control avg 13.854
# binarize Ct: threshold 30 inclusive, high side Criterion met, low side Criterion not met

> print(dat)
                           structure.string                   study.target     assigned.class
1  CC1(C)S[C@@H]2[C@H](NC(=O)[C@H](N)c3ccccc3)C(=O)N2[C@H]1C(=O)O  pathogens of clinical samples  Criterion not met
2                 C[C@@H]1O[C@@H]1P(=O)(O)O  pathogens of clinical samples  Criterion not met
3  C[C@@H](O)[C@H]1C(=O)N2C(C(=O)O)=C(S[C@@H]3CN[C@H](C(=O)N(C)C)C3)[C@H](C)[C@H]12  pathogens of clinical samples  Criterion not met

Req: Does `C[C@H]1COc2c(N3CCN(C)CC3)c(F)cc3c(=O)c(C(=O)O)cn1c23` have a reported Ct of at least 30?
Resp: Criterion met

Req: Does `CO[C@@]1(NC(=O)Cc2cccs2)C(=O)N2C(C(=O)O)=C(COC(N)=O)CS[C@@H]21` have a reported Ct of at least 30?
Resp: Criterion not met

###

Test system: pathogens of clinical samples
Experiment: Molecular phenotypic antimicrobial susceptibility test of clinical samples, direct PCR without a separate DNA purification step (Table 6)
Assay type: cell-based
Details: E. faecalis, clinical sample of r100-r106
Measured Quantity: Molecular Antibiotic Susceptibility Result

Molecule	Study Target	Measurement
C[C@@H]1O[C@@H]1P(=O)(O)O [Fosfomycin]	pathogens of clinical samples	sensitive
CC1(C)S[C@@H]2[C@H](NC(=O)[C@H](N)c3ccccc3)C(=O)N2[C@H]1C(=O)O [Ampicillin]	pathogens of clinical samples	sensitive
CN[C@H](CC(C)C)C(=O)N[C@H]1C(=O)N[C@@H](CC(N)=O)C(=O)N[C@H]2C(=O)N[C@H]3C(=O)N[C@H](C(=O)N[C@H](C(=O)O)c4cc(O)cc(O)c4-c4cc3ccc4O)[C@H](O)c3ccc(c(Cl)c3)Oc3cc2cc(c3O[C@@H]2O[C@H](CO)[C@@H](O)[C@H](O)[C@H]2O[C@H]2C[C@](C)(N)[C@H](O)[C@H](C)O2)Oc2ccc(cc2Cl)[C@H]1O [Vancomycin]	pathogens of clinical samples	sensitive

###

System: pathogens of clinical samples
Experiment: Molecular phenotypic antimicrobial susceptibility test of clinical samples, direct PCR without a separate DNA purification step (Table 6)
Assay type: cell-based
Settings: M. morganii, clinical sample of r70-r84, Ct control avg 11.677
Measured Quantity: Ct
Number only, please.

Illustrative cases are given below, each with its answer.
> print(dat)
                           structure.string  measurement
1  CC1(C)S[C@@H]2[C@H](NC(=O)[C@H](N)c3ccccc3)C(=O)N2[C@H]1C(=O)O       11.867
2  CO[C@@]1(NC(=O)Cc2cccs2)C(=O)N2C(C(=O)O)=C(COC(N)=O)CS[C@@H]21       29.107
3  O=C1CN(/N=C/c2ccc([N+](=O)[O-])o2)C(=O)N1       29.959

Below: the item to evaluate.
Req: // returns reported Ct for input `C[C@@H]1O[C@@H]1P(=O)(O)O`
Resp: 28.123

###

Test system: pathogens of clinical samples
Assay: Molecular phenotypic antimicrobial susceptibility test of clinical samples, direct PCR without a separate DNA purification step (Table 6)
Format: cell-based
Conditions: P. mirabilis, clinical sample of r25-r39
Measured Quantity: Molecular Antibiotic Susceptibility Result

> print(dat)
                                   molecule  measurement
1  O=C1CN(/N=C/c2ccc([N+](=O)[O-])o2)C(=O)N1 [Nitrofurantoin]    Resistant
2  CN(C)[C@@H]1C(O)=C(C(N)=O)C(=O)[C@@]2(O)C(O)=C3C(=O)c4c(O)cccc4[C@@](C)(O)[C@H]3C[C@@H]12 [Tetracycline]    Resistant

###

Test system: pathogens of clinical samples
Assay: Molecular phenotypic antimicrobial susceptibility test of clinical samples, direct PCR without a separate DNA purification step (Table 6)
Assay type: cell-based
Conditions: K. aerogenes, clinical sample of r136-r150, Ct control avg 13.854
Measured Quantity: Ct
Number only, please.

> print(dat)
                           structure.string  measurement
1  CO/N=C(\C(=O)N[C@@H]1C(=O)N2C(C(=O)O)=C(CSc3nc(=O)c(=O)[nH]n3C)CS[C@H]12)c1csc(N)n1       29.137

Req: // returns reported Ct for input `O=C1CN(/N=C/c2ccc([N+](=O)[O-])o2)C(=O)N1`
Resp: 29.821

Req: // returns reported Ct for input `CN(C)[C@@H]1C(O)=C(C(N)=O)C(=O)[C@@]2(O)C(O)=C3C(=O)c4c(O)cccc4[C@@](C)(O)[C@H]3C[C@@H]12`
Resp: 30.787
